Consider the following sequences; for each one, report its protein stability index.
assay: protein stability index of a GFP-peptide fusion (yeast GPS) (PSI 1-4); higher = more stable; sorted into four equal gates, so the index is relative within each strain; conditions: san1∆
Simply state the number, no unit and no words.

Entry ISKRKEELEEEFRKKLK [YIL149C/MLP2] has what protein stability index?
3.06

Entry SKAPAEKKPAAKKTSTS [HTB1] has what protein stability index?
2.83

Entry HYLFNTFTFTAHMGVLL [SWP82] has what protein stability index?
1.39

Entry TGKVSEFISIYSNSHQM [RET1] has what protein stability index?
3.03

Entry QMIQQRHQQLLRSRLQQ [SNF5] has what protein stability index?
2.71

Entry DEVITEGQADIDMESDV [POP7] has what protein stability index?
3.33

Entry KQEIMMSDLFTFDWFIK [ISW2] has what protein stability index?
2.46

Entry PAKVEDVQKSSDSSSED [YLR335W/NUP2] has what protein stability index?
2.4

Entry NVSSNIVKNAEQHNLVK [RPS20] has what protein stability index?
3.26

Entry EVAVPDRVAKVLTYPEK [RPO31] has what protein stability index?
2.88

Entry LTIKDIVLGVKDLQENL [RPO21] has what protein stability index?
3.6

Entry NSASSAPTPAAPGASVP [SWI1] has what protein stability index?
3.21

Entry TISSKPDILATDLIREK [YCS4] has what protein stability index?
3.4

Entry NTTQDNGGDKELEMIGG [YCS4] has what protein stability index?
2.46

Entry RLFIGDQNNKKMVGLRG [SNF2] has what protein stability index?
2.36

Entry DPLLSLYNFLHKYVLTL [RGR1] has what protein stability index?
2.49

Entry EAMYKLQLASLQQKQRD [SMC3] has what protein stability index?
2.52

Entry VDEPMTSAVELGAIEQI [YJL039C/NUP192] has what protein stability index?
3

Entry SEDSMNVQLRDVIATEP [SMD3] has what protein stability index?
3.09

Entry LEPFLLMLEDTDGDSIL [BRR2] has what protein stability index?
3.05

Entry KSSLSLRDHALSLTAFT [ITC1] has what protein stability index?
1.64

Entry ADGPTMREITETIAEAK [RPO21] has what protein stability index?
3.39

Entry IRNIVEAAAVRDLSEAS [RPS26A] has what protein stability index?
2.39

Entry ISLLCKNFKGIEEIEYN [PCI8] has what protein stability index?
3.11

Entry GSKKGQEGKISSVYRLK [RPL26A] has what protein stability index?
2.7

Entry FDDILKVGAEMMMQQQL [MED2] has what protein stability index?
2.53

Entry HRWGTKKLPRKTHRGLR [RPL3] has what protein stability index?
3.12

Entry VLNQQLPIESQFVSKLV [BRR2] has what protein stability index?
1.96

Entry KDGSNPRTLIGHRATVT [RPN14] has what protein stability index?
3.07

Entry SRMRLIRQDVNLGRAVF [PRP8] has what protein stability index?
2.04

Entry KFKKEKFDIIIVDTSGR [SRP54] has what protein stability index?
2.95

Entry PKELVPSHEKLKESYSQ [CDC53] has what protein stability index?
2.51

Entry HNGAPHHAIEEAESLLQ [RPO21] has what protein stability index?
2.66

Entry HFVQEEPLAFYLEESFT [RGR1] has what protein stability index?
2.67

Entry GSQFIVVSLKEGMFANA [SMC2] has what protein stability index?
3.44

Entry DFSLRYISNLLYGVTIC [REC8] has what protein stability index?
1.83

Entry TGRLFQVEYALEAIKQG [PRE5] has what protein stability index?
3.16

Entry IEKFEQVPDSLDDQIFV [RPN6] has what protein stability index?
3.53

Entry CTSLMDIIVAIKIFELK [IRR1] has what protein stability index?
2.13

Entry VRLRSNVIKTGIRIISL [RPN3] has what protein stability index?
2.22

Entry GHRMKNAQSKLSLTLNT [SNF2] has what protein stability index?
1.79

Entry ETNGYDPFSIYGFSNKE [SNF5] has what protein stability index?
2.12

Entry HDGGFDLVHIKDSLDNT [RPS4A] has what protein stability index?
2.73

Entry PNFFLTLISENWWHSEF [BRR2] has what protein stability index?
2.59

Entry NTAAALVSLLDENDSKK [YAR002W/NUP60] has what protein stability index?
3.01

Entry WLLHNGFSTGIGDTIAD [RPO21] has what protein stability index?
3.26

Entry PSFGKRHNKSHTLCNRC [RPL37A] has what protein stability index?
2.97

Entry GNSESKVEKGVNIEPFN [LIN1] has what protein stability index?
3.46

* * *

test: protein stability index of a GFP-peptide fusion (yeast GPS) (PSI 1-4); higher = more stable; sorted into four equal gates, so the index is relative within each strain; conditions: pdr5∆
Quick rule: protein stability index of at least 3 means met, below that means not met.

Can IVQIDATPFRQWFEAHY [RPS8A] be said to have protein stability index at or above 3?
not met

Can FIKEIHKSIELISNLLF [YCS4] be said to have protein stability index at or above 3?
not met

Can PIAAPKKPRKPRQTKKA [PGD1] be said to have protein stability index at or above 3?
met

Can WLYVYETPNQDATYDSA [RPN6] be said to have protein stability index at or above 3?
not met

Can MAVKTGIAIGLNKGKKV [RPL36B] be said to have protein stability index at or above 3?
not met

Can PSAEIREAYIENFAKGE [SWP82] be said to have protein stability index at or above 3?
not met

Can TGGGLFGSKPTGATSLF [YGL172W/NUP49] be said to have protein stability index at or above 3?
met

Can KTSSQTSLSSKDLSNYR [YMR153W/NUP53] be said to have protein stability index at or above 3?
not met

Can DGKLIDISGTMSGGGNH [SMC4] be said to have protein stability index at or above 3?
met

Can QNIILRSTMMKFLKIAS [RPN3] be said to have protein stability index at or above 3?
not met

Can NLRHERNSLETKLTTCK [YIL149C/MLP2] be said to have protein stability index at or above 3?
not met

Can TFEFINIAFDAHMSIGC [YML031W/NDC1] be said to have protein stability index at or above 3?
not met

Can NMGMNNMNNGGKELDSL [PGD1] be said to have protein stability index at or above 3?
met

Can VNIPSFMVRLDSEKHID [RPS9A] be said to have protein stability index at or above 3?
not met

Can SLMDTLITPAVRNTAPN [YCG1] be said to have protein stability index at or above 3?
not met

Can IDVDMDASPAPSNESCS [SRB5] be said to have protein stability index at or above 3?
not met

* * *

test: protein stability index of a GFP-peptide fusion (yeast GPS) (PSI 1-4); higher = more stable; sorted into four equal gates, so the index is relative within each strain; conditions: pdr5∆
Consider the following sequences; for each one, report its protein stability index.
Simply state the number, no unit and no words.

Entry TAAEKKERLTKEAAAIA [RPL8B] has what protein stability index?
2.25

Entry WGMEPLEDYVPHQSPDA [RPB2] has what protein stability index?
3.3

Entry ETTIDDLPISSTDNEAI [SMC1] has what protein stability index?
2.7

Entry APGASVPATAAPGTEAG [SWI1] has what protein stability index?
3.05

Entry DLCSSVLSQFERSYPSE [ROX3] has what protein stability index?
3.42

Entry MSTKAQNPMRDLKIEKL [RPL11B] has what protein stability index?
3.25

Entry KKWKKYWQYKAGIPIGL [SWP82] has what protein stability index?
2.25

Entry NMFGDYSNEPFNTNFDD [SNF6] has what protein stability index?
2.78

Entry FRVQSQSNYGIYSSDAQ [NUT1] has what protein stability index?
2.51

Entry LNSYHIKNGRIYFTVPN [RGR1] has what protein stability index?
2.21

Entry RQMKDVNAPLPTPFKVD [RPN2] has what protein stability index?
3.04

* * *

experiment: protein stability index of a GFP-peptide fusion (yeast GPS) (PSI 1-4); higher = more stable; sorted into four equal gates, so the index is relative within each strain; details: pdr5∆
PROPERTY_MEASURED: protein stability index

Entry TANAKHTSSNSREIAQP [SMB1] has what protein stability index?
2.94

Entry VQGLLQNAAANAEAKGL [RPL17A] has what protein stability index?
2.76

Entry IALNLASKKFGKICLIL [SSN2] has what protein stability index?
2.83

Entry GDIVLTRVTRLSLQRAN [CSL4] has what protein stability index?
1.41

Entry LDGDRADKRGVLTGGYL [SMC3] has what protein stability index?
3.03

Entry RSPRVVTNALDNIDEKV [NUT1] has what protein stability index?
2.79

Entry SATSKPAFSFGAKPEEK [YJL041W/NSP1] has what protein stability index?
3.31

Entry ISRNGDTSYKIDGKTVS [SMC1] has what protein stability index?
3.01

Entry PEMIKRSLLLSRVRADD [RRP43] has what protein stability index?
3.63

Entry LPFMQNAGPNSNIPNLL [YDL088C/ASM4] has what protein stability index?
2.18
